The reported measurements were obtained from PubChem BioAssay AID1963875.

- System: KRAS-mutant PDC complex spheroid viability
- TEST_METHOD_NOTES: Anticancer human tumor 186277-243-T-J2-PDC patient-derived colon adenocarcinoma cell line growth inhibition [KRAS2]; active = viability on the fitted dose curve at most 10% of control; inactive = the rest
- PROTOCOL_CONDITIONS: second compound 3.16 µM; first compound 0.01 µM
Hi! Could you answer with just one of these? yes = active, no = inactive

Ask | // param item: CC(=O)Nc1cccc(-n2c(=O)n(C3CC3)c(=O)c3c(Nc4ccc(I)cc4F)n(C)c(=O)c(C)c32)c1 + CNCc1ccccc1-c1csc(C(C)Nc2nc(C)nc3cc(OC)c(OC)cc23)c1 ; yields the recorded call
Reply | yes

Ask | // param item: CC(C)n1nc(-c2ccc3oc(N)nc3c2)c2c(N)ncnc21 + COc1cc2nc(C)nc(NC(C)c3cc(N)cc(C(F)(F)F)c3)c2cc1OC1CCOC1 ; yields the recorded call
Reply | no

Ask | // param item: CN(C)C/C=C/C(=O)Nc1cc2c(Nc3ccc(F)c(Cl)c3)ncnc2cc1O[C@H]1CCOC1 + C=CC(=O)N1CCN(c2nc(=O)n(-c3c(C)ccnc3C(C)C)c3nc(-c4c(O)cccc4F)c(F)cc23)C(C)C1 ; yields the recorded call
Reply | no

Ask | // param item: CC(=O)Nc1cccc(-n2c(=O)n(C3CC3)c(=O)c3c(Nc4ccc(I)cc4F)n(C)c(=O)c(C)c32)c1 + COc1cc2nc(C)nc(NC(C)c3cc(N)cc(C(F)(F)F)c3)c2cc1OC1CCOC1 ; yields the recorded call
Reply | yes

----------
For each entry below, report its viability, T/C value.
- Test system: KRAS-mutant PDC complex spheroid viability
- TEST_METHOD_NOTES: Anticancer human tumor 186277-243-T-J2-PDC cell line growth inhibition [KRAS2];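 as to viability, T/C: viability read after seven days of compound exposure; 100% = DMSO vehicle-treated spheroids so lower means less viable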
- PROTOCOL_CONDITIONS: second compound 0.1 µM; first compound 1 µM; stronger effect = lower value
Provide only the numeric value, understood in %.

Recorded result, CCN1CCN(Cc2ccc(Nc3ncc(F)c(-c4cc(F)c5nc(C)n(C(C)C)c5c4)n3)nc2)CC1 + CC1OCC2(CCN(c3cnc(Sc4ccnc(N)c4Cl)c(N)n3)CC2)C1N , viability, T/C: 60.8

Recorded result, CC(C)NCC(C(=O)N1CCN(c2ncnc3c2C(C)CC3O)CC1)c1ccc(Cl)cc1 (stereo not drawn) + C=CC(=O)N1CCN(c2nc(=O)n(-c3c(C)ccnc3C(C)C)c3nc(-c4c(O)cccc4F)c(F)cc23)C(C)C1 , viability, T/C: 37.5

Recorded result, CCNC(=O)CC1N=C(c2ccc(Cl)cc2)c2cc(OC)ccc2-n2c(C)nnc21 (stereo not drawn) + C=CC(=O)N1CCN(c2nc(OCC3CCCN3C)nc3c2CCN(c2cccc4cccc(C)c24)C3)CC1CC#N , viability, T/C: 169

----------
- Tested on: KRAS-mutant PDC complex spheroid viability
- TEST_METHOD_NOTES: Anticancer human tumor 186277-243-T-J2-PDC cell line growth inhibition [KRAS2]
- PROTOCOL_CONDITIONS: curve of first compound; second compound 0.1 µM
VALUE_KIND: IC50

KRAS-mutant PDC complex spheroid viability data for COc1cc(Nc2ncc3c(n2)-c2ccc(Cl)cc2C(c2c(F)cccc2OC)=NC3)ccc1C(=O)O + C=CC(=O)N1CCN(c2nc(=O)n(-c3c(C)ccnc3C(C)C)c3nc(-c4c(O)cccc4F)c(F)cc23)C(C)C1 ; its IC50: < 31.6 nM

KRAS-mutant PDC complex spheroid viability data for CC1COCCN1c1cc(-c2ccnn2C)c2ccnc(-c3ccn[nH]3)c2n1 (stereo not given) + CNCc1ccccc1-c1csc(C(C)Nc2nc(C)nc3cc(OC)c(OC)cc23)c1 ; its IC50: 20 nM

KRAS-mutant PDC complex spheroid viability data for CC(=O)Nc1cccc(-n2c(=O)n(C3CC3)c(=O)c3c(Nc4ccc(I)cc4F)n(C)c(=O)c(C)c32)c1 + C=CC(=O)N1CCN(c2nc(OCC3CCCN3C)nc3c2CCN(c2cccc4cccc(C)c24)C3)CC1CC#N ; its IC50: 0.668 nM

KRAS-mutant PDC complex spheroid viability data for COc1cc(Nc2ncc3c(n2)-c2ccc(Cl)cc2C(c2c(F)cccc2OC)=NC3)ccc1C(=O)O + CNCc1ccccc1-c1csc(C(C)Nc2nc(C)nc3cc(OC)c(OC)cc23)c1 ; its IC50: < 31.6 nM

KRAS-mutant PDC complex spheroid viability data for CN(C)C/C=C/C(=O)Nc1cc2c(Nc3ccc(F)c(Cl)c3)ncnc2cc1O[C@H]1CCOC1 + C=CC(=O)N1CCN(c2nc(=O)n(-c3c(C)ccnc3C(C)C)c3nc(-c4c(O)cccc4F)c(F)cc23)C(C)C1 ; its IC50: > 100 nM

KRAS-mutant PDC complex spheroid viability data for CC1COCCN1c1cc(-c2ccnn2C)c2ccnc(-c3ccn[nH]3)c2n1 (stereo not given) + CC1OCC2(CCN(c3cnc(Sc4ccnc(N)c4Cl)c(N)n3)CC2)C1N ; its IC50: 20.7 nM

KRAS-mutant PDC complex spheroid viability data for Cn1ncnc1[C@H]1c2n[nH]c(=O)c3cc(F)cc(c23)N[C@@H]1c1ccc(F)cc1 + COc1cc2nc(C)nc(NC(C)c3cc(N)cc(C(F)(F)F)c3)c2cc1OC1CCOC1 ; its IC50: > 100 nM

KRAS-mutant PDC complex spheroid viability data for COc1cc(Nc2ncc3c(n2)-c2ccc(Cl)cc2C(c2c(F)cccc2OC)=NC3)ccc1C(=O)O + C=CC(=O)N1CCN(c2nc(OCC3CCCN3C)nc3c2CCN(c2cccc4cccc(C)c24)C3)CC1CC#N ; its IC50: < 31.6 nM

KRAS-mutant PDC complex spheroid viability data for CC(=O)OC12COC1CC(O)C1(C)C(=O)C(O)C3=C(C)C(OC(=O)C(O)C(NC(=O)OC(C)(C)C)c4ccccc4)CC(O)(C(OC(=O)c4ccccc4)C21)C3(C)C (stereo not given) + C=CC(=O)N1CCN(c2nc(OCC3CCCN3C)nc3c2CCN(c2cccc4cccc(C)c24)C3)CC1CC#N ; its IC50: < 10 nM

KRAS-mutant PDC complex spheroid viability data for CC(=O)OC12COC1CC(O)C1(C)C(=O)C(O)C3=C(C)C(OC(=O)C(O)C(NC(=O)OC(C)(C)C)c4ccccc4)CC(O)(C(OC(=O)c4ccccc4)C21)C3(C)C (stereo not given) + CNCc1ccccc1-c1csc(C(C)Nc2nc(C)nc3cc(OC)c(OC)cc23)c1 ; its IC50: < 10 nM
